experiment_notes: Cytotoxicity against human Li-7 cells assessed as reduction in cell viability by MTT assay
Format: toxicity, cell-based
property: CC50

entry_smiles: O=C(NC(=S)Nc1ccc(Br)cn1)c1ccc(C(F)(F)F)cc1
observed_value: > 100 µM

entry_smiles: O=C(NC(=S)Nc1ccc(C(F)(F)F)cn1)c1ccc(Cl)cc1
observed_value: > 100 µM

* * *

experiment_notes: Cytotoxicity against human SSP-25 cells assessed as reduction in cell viability by MTT assay
Type: toxicity, cell-based
// reported CC50 for each item listed

entry_smiles: O=C(NC(=S)Nc1ccc(Br)cn1)c1ccc(C(F)(F)F)cc1
CC50 (µM): 76.3
//
entry_smiles: O=C(NC(=S)Nc1ccc(C(F)(F)F)cn1)c1ccc(Cl)cc1
CC50 (µM): 61.3
